I'd appreciate it if you could supply MMP2 production, Experiment 1 (human atrial fibroblasts + TGFB1) values for the items below.
- measured on: T1, Human IL-11 (human, UniProt P20809 22-199)
- T1 sequence: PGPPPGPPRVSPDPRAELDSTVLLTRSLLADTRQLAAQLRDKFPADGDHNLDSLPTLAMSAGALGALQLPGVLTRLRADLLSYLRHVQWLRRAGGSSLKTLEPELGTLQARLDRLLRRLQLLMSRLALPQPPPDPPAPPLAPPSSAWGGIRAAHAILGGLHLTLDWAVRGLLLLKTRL
- protocol text: cell-based or functional assay; also: test concentration or dose not given here
# output: numeric value plus its unit

Annotate the binder YU100-E04 (antibody) QVQLQQSGGGVVQPGRSLRLSCAASGFTFSSYGMHWVRQAPGKGLEWVAVISYDGSNKYYADSVKGRFTISRDNSKNTLYLQMNSLRAEDTAVYYCAKIGATDPLDYWGQGTLVTVSSGSASAPKLEEGEFSEARVQSALTQPRSVSGSPGQSVTISCTGTSSDVGGYNYVSWYQQHPGKTPKLMIYDVTKRPSGVPDHFSGSKSGNTASLTISGLQAEDEADYYCCSYAGSHIWVFGGGTKLTVLGQPKAAPSVTLFPPSS with its measured MMP2 production, Experiment 1 (human atrial fibroblasts + TGFB1). 50 ng/mL

Read off the recorded MMP2 production, Experiment 1 (human atrial fibroblasts + TGFB1) for YU100-B07 (antibody) QVQLVESGGGVVQPGRSLRLSCAASGFTFSSYGMHWVRQAPGKGLEWVAVISYDGSNKYYADSVKGRFTISRDNSKNTLYLQMNSLRAEDTAVYYCAKIGATDPLDYWGQGTLVTVSSGSASAPKLEEGEFSEARVQSALTQPRSVSGSPGQSVTMSCTGTSRDVGGYNYVSWYQHHPGKAPKLMIYDVSKRPSGVPDRFSGSKSGNTASLTISELQAEDEADYYCCSYAGSYTWVFGGGTKLTVL 55.9 ng/mL

Tell us which MMP2 production, Experiment 1 (human atrial fibroblasts + TGFB1) value is on record for YU100-E06 (antibody) QVQLVESGGGVVQPGRSLRLSCAASGFTFSSYGMHWVRQAPGKGLEWVAVISYDGSNKYYADSVKGRFTISRDNSKNTLYLQMNSLRAEDTAVYYCAKIGATDPLDYWGQGTLVTVSSGSASAPKLEEGEFSEARVQSALTQPASVSGFPEQSITISCTGTSSDVGGYDYVSWYQQHPGKAPKLMIYDVTNRPSGVSNRFSGSKSGNTASLTISGLQPEDEADYYCSSYTSNTTWVFGGGTKLTVLRQPKAAPSVTLFPPSS 54.1 ng/mL
